Values compiled from patent US20170267768A1.

- System tested: T1, human EphA2 on OVCAR-3 and U-251 cells (human, UniProt P29317 24-976)
- T1 construct: whole, on cells; also called EphA2 receptors
- T1 sequence (P29317 24-976): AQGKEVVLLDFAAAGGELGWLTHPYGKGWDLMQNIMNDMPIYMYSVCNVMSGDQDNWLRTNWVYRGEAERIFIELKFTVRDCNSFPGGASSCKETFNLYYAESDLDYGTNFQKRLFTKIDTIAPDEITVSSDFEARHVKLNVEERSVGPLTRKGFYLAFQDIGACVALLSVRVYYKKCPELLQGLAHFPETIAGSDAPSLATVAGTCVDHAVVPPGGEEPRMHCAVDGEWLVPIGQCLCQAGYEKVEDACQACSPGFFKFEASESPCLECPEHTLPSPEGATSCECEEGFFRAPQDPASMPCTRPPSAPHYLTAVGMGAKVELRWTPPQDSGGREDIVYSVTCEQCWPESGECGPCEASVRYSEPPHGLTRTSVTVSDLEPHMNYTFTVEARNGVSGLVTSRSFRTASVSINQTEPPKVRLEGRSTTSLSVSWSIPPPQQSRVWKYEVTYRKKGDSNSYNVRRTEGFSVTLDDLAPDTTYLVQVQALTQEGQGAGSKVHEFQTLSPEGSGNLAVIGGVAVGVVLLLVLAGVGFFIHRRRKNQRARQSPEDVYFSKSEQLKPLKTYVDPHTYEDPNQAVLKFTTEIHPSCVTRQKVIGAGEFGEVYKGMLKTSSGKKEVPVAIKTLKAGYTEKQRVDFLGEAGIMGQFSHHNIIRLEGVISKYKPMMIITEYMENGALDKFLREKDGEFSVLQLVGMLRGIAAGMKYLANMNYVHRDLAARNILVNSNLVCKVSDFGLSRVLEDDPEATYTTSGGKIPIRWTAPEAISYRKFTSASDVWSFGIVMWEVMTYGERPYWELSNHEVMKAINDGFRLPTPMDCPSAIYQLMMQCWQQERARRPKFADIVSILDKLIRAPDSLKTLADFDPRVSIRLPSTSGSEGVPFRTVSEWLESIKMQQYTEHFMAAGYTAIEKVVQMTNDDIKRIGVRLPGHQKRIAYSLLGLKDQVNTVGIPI
- Method notes: CLIA: scFv-decorated fluorescent NTA(Ni) liposomes on EphA2-expressing cells, FACS
Observable: binding result

INSERT INTO measurements (binder, observable, assay_value) VALUES
  ('scFv-5 (scFv) scFv: QVQLVQSGGGLVQPGGSLRLSCAASGFTFSSYAMHWVRQAPGKGLEWVSVISRRGDNKYYADSVKGRFTISRDNSKNTLYLQMNSLRAEDTAVYYCARASVGATGPFDIWGQGTLVTVSSASTGGGGSGGGGSGGGGSGGGGSSSELTQPPSVSVAPGQTVTITCQGDSLRSYYASWYQQKPGTAPKLLIYGENNRPSGVPDRFSGSSSGTSASLTITGAQAEDEADYYCNSRDSSGTHLTVFGGGTKLTVLG', 'binding result', 'binds'),
  ('scFv-21 (scFv) scFv: QVQLVQSGGGLVQPGGSLRLSCAASGFTFSSYAMHWVRQAPGKGLEWVTVISRHGNNKYYADSVKGRFTISRDNSKNTLYLQMNSLRAEDTAVYYCARASVGATGPFDIWGQGTLVTVSSASTGGGGSGGGGSGGGGSGGGGSSSELTQPPSVSVAPGQTVTITCQGDSLRSYYASWYQQKPGTAPKLLIYGENNRPSGVPDRFSGSSSGTSASLTITGAQAEDEADYYCNSRDSSGTHLTVFGGGTKLTVLG', 'binding result', 'binds'),
  ('scFv-9 (scFv) scFv: QVQLVQSGGGLVQPGGSLRLSCAASGFTFSSYAMHWVRQAPGKGLEWVTVISPNGHNTYYADSVKGRFTISRDNSKNTLYLQMNSLRAEDTAVYYCARASVGATGPFDIWGQGTLVTVSSASTGGGGSGGGGSGGGGSGGGGSSSELTQPPSVSVAPGQTVTITCQGDSLRSYYASWYQQKPGTAPKLLIYGENNRPSGVPDRFSGSSSGTSASLTITGAQAEDEADYYCNSRDSSGTHLTVFGGGTKLTVLG', 'binding result', 'binds');
